Assay: Intrinsic clearance in human liver microsomes assessed per mg of protein
Assay type: ADME, Microsome
Readings of microsomal CLint for the listed compounds

[
  {
    "CPD SMILES": "Cc1ncc(Cc2nc(-c3nc(C(F)(F)F)n[nH]3)n3ccccc23)cn1",
    "microsomal CLint": "< 8 µL/min/mg"
  },
  {
    "CPD SMILES": "Cc1ncc(Cn2nc(-c3nc(C(F)(F)F)n[nH]3)c3cccnc32)cn1",
    "microsomal CLint": "< 7 µL/min/mg"
  },
  {
    "CPD SMILES": "Cc1ncc(Cc2nc(-c3nc(C(F)(F)F)n[nH]3)n3cccc(F)c23)cn1",
    "microsomal CLint": "< 8 µL/min/mg"
  }
]
